FYI, the data here is from patent US20250188069A1.

- Tested on: MV-4-11 cells
- Experiment notes: AML cell viability assay (RealTime-Glo)
- Format: cell-based
- Condition notes: Homo sapiens, MV4-11; IC50 class; MV-4-11 cells, RealTime-Glo after 44 hrs of treatment (TABLE 5); read-out: Cell viability classification
Counter-ions that a name gives are not always drawn.
What IC50 was measured for each of the following?

Prompt: Give IC50 for the following compound: O=C1CCC(N2Cc3c(cccc3N(CCC3CC3)[C@H]3CC[C@H](NCc4nccs4)CC3)C2=O)C(=O)N1 (some centres unmarked)
Response: 100 to 1000 nM

Prompt: Give IC50 for the following compound: O=C1CCC(N2Cc3c(cccc3N(CCC3CC3)[C@H]3CC[C@H](N4CCC(F)C4)CC3)C2=O)C(=O)N1 (some centres unmarked)
Response: 100 to 1000 nM

Prompt: Give IC50 for the following compound: O=C1CCC(N2Cc3c(cccc3N(CCC3CC3)C3CCC4(CC3)COCCN4)C2=O)C(=O)N1 (centres unmarked)
Response: 100 to 1000 nM

Prompt: Give IC50 for the following compound: NC(=O)C12CC(N(CCC3CC3)c3cccc4c3CN(C3CCC(=O)NC3=O)C4=O)(C1)C2 (centres unmarked)
Response: 100 to 1000 nM

Prompt: Give IC50 for the following compound: O=C1CCC(N2Cc3c(cccc3N(CCC3CC3)[C@H]3CC[C@H](NCC4CCCO4)CC3)C2=O)C(=O)N1 (some centres unmarked)
Response: < 100 nM

Prompt: Give IC50 for the following compound: O=C1CCC(N2Cc3c(cccc3N(CCC3CC3)[C@H]3CC[C@H](NCc4ncco4)CC3)C2=O)C(=O)N1 (some centres unmarked)
Response: 100 to 1000 nM

Prompt: Give IC50 for the following compound: O=C1CCC(N2Cc3c(cccc3N(CCC3CC3)[C@H]3CC[C@@H](N4CCC(F)(F)CC4)CC3)C2=O)C(=O)N1 (some centres unmarked) [Compound 716A]
Response: > 1000 nM

Prompt: Give IC50 for the following compound: O=C1CCC(N2Cc3c(cccc3N(CCC3CC3)[C@H]3CC[C@H](N4CCOCC4)CC3)C2=O)C(=O)N1 (some centres unmarked)
Response: < 100 nM

Prompt: Give IC50 for the following compound: O=C1CCC(N2Cc3c(cccc3N(CC3CCC3)[C@H]3CC[C@H](NCCC(F)(F)F)CC3)C2=O)C(=O)N1 (some centres unmarked)
Response: 100 to 1000 nM

Prompt: Give IC50 for the following compound: O=C1CCC(N2Cc3c(cccc3N(CC3CC(F)(F)C3)[C@H]3CC[C@H](NCC4(C(F)(F)F)CC4)CC3)C2=O)C(=O)N1 (some centres unmarked)
Response: > 1000 nM

Prompt: Give IC50 for the following compound: O=C1CCC(N2Cc3c(cccc3N(CCC3CC3)C3CCC(N[C@H]4C[C@@H]4C(F)(F)F)CC3)C2=O)C(=O)N1 (some centres unmarked) [Compound 678, Trifluoroacetate]
Response: 100 to 1000 nM

Prompt: Give IC50 for the following compound: O=C1CCC(N2Cc3c(cccc3N(CCC3CC3)[C@H]3CC[C@@H](N4CCC5(C4)CC5(F)F)CC3)C2=O)C(=O)N1 (some centres unmarked) [Compound 711A]
Response: > 1000 nM

Prompt: Give IC50 for the following compound: O=C1CCC(N2Cc3c(cccc3N(CCC3CC3)[C@H]3CC[C@H](N4CC[C@@H](C(F)(F)F)C4)CC3)C2=O)C(=O)N1 (some centres unmarked)
Response: 100 to 1000 nM

Prompt: Give IC50 for the following compound: CN(CCC(F)F)[C@H]1CC[C@@H](N(CCC2CC2)c2cccc3c2CN(C2CCC(=O)NC2=O)C3=O)CC1 (some centres unmarked) [Compound 683A]
Response: 100 to 1000 nM

###

What IC50 was measured for each of the following?
- System: MV-4-11 cells
- Experiment notes: AML cell viability assay (RealTime-Glo)
- Type: cell-based
- Condition notes: Homo sapiens, MV4-11; IC50 class; MV-4-11 cells, RealTime-Glo after 44 hrs of treatment (TABLE 1); read-out: Cell viability classification
Structures can show the parent of a compound that is named as a salt.

Prompt: Give IC50 for the following compound: CCCCCN(c1cccc2c1CN(C1CCC(=O)NC1=O)C2=O)[C@H]1CCC[C@H](N)C1 (stereo partly shown) [Compound 327]
Response: < 100 nM

Prompt: Give IC50 for the following compound: CCCN(CCCCN)c1cccc2c1CN(C1CCC(=O)NC1=O)C2=O (stereo not shown) [Compound 4]
Response: < 100 nM

Prompt: Give IC50 for the following compound: O=C1CCC(N2Cc3c(cccc3N(CCCC3CCOCC3)[C@@H]3CC[C@H](NCC4CC4)C3)C2=O)C(=O)N1 (stereo partly shown) [Compound 356]
Response: < 100 nM

Prompt: Give IC50 for the following compound: NCCCCCN(CCCCN)c1cccc2c1CN(C1CCC(=O)NC1=O)C2=O (stereo not shown) [Compound 55, dihydrochloride]
Response: 100 to 1000 nM

Prompt: Give IC50 for the following compound: CCCN(CCCCNC(C)=O)c1cccc2c1CN(C1CCC(=O)NC1=O)C2=O (stereo not shown) [Compound 50]
Response: < 100 nM

Prompt: Give IC50 for the following compound: N[C@H]1CC[C@H](N(CCc2ccccc2)c2cccc3c2CN(C2CCC(=O)NC2=O)C3=O)CC1 (stereo partly shown) [Compound 247, HCl]
Response: 100 to 1000 nM

Prompt: Give IC50 for the following compound: CCCCCN(c1cccc2c1CN(C1CCC(=O)NC1=O)C2=O)[C@H]1CC[C@@H](CN)CC1 (stereo partly shown) [Compound 89, hydrochloride]
Response: < 100 nM

###

- System: CK1α (Homo sapiens, UniProt P48729+Q96SW2)
- Sequence (P48729 whole entry): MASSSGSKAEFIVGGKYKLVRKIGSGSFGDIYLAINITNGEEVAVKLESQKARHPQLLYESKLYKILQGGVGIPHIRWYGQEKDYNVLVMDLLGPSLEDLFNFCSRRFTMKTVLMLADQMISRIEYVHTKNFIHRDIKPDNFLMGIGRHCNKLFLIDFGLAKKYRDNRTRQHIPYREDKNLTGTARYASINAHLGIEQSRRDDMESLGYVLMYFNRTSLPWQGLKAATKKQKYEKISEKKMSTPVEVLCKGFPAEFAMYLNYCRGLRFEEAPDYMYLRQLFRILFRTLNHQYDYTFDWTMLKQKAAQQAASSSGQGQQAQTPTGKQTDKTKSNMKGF
- Sequence (Q96SW2 whole entry): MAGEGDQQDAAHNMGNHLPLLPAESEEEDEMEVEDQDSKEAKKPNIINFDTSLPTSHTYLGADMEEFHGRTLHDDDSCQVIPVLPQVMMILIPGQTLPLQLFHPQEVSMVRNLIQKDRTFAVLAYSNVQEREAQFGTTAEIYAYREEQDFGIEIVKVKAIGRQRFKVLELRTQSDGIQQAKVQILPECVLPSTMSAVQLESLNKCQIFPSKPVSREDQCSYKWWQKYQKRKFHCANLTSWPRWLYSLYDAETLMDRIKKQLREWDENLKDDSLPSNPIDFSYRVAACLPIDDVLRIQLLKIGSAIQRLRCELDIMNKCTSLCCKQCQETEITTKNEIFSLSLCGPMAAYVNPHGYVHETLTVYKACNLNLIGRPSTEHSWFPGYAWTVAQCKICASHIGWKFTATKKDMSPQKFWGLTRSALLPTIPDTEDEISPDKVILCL
- Sequence (Q16531 whole entry partner): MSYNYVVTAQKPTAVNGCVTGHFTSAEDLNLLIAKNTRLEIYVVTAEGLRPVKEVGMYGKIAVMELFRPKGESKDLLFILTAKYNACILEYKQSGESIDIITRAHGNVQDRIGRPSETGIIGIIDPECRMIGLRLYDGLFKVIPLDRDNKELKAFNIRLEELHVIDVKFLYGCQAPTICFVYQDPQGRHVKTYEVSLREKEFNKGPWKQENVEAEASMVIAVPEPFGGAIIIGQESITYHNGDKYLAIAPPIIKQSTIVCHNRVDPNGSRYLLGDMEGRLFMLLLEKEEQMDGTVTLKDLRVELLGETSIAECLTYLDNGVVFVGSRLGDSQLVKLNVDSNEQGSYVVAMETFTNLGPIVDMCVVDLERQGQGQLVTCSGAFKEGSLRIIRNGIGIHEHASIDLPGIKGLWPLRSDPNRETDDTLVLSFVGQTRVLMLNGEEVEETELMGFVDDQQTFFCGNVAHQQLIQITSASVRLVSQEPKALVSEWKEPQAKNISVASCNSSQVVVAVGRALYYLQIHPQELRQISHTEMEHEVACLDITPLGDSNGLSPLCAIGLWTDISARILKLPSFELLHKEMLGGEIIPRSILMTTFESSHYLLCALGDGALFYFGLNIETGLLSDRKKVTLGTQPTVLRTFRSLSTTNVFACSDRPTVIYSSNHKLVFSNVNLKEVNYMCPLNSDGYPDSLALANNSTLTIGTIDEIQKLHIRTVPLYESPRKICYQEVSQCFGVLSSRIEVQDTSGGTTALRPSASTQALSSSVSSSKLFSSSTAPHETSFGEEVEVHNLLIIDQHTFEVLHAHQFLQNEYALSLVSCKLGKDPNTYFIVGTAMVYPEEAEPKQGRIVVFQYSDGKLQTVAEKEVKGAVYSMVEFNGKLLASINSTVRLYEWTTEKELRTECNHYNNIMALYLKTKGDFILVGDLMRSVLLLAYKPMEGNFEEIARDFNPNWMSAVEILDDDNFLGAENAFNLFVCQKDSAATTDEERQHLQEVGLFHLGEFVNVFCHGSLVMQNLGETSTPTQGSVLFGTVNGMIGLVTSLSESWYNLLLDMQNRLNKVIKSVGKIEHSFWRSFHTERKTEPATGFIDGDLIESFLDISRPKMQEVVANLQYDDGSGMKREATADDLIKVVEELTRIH
- Experiment notes: CK1α HiBiT assay in CK1a_HiBiT_Jurkat cells
- Format: cell-based
- Condition notes: DC50 class, 16 hours, Nano-Glo HiBiT Lytic Detection, read-out: CK1α degradation classification
What DC50 was measured for each of the following?

Prompt: Give DC50 for the following compound: O=C1CCC(N2Cc3c(cccc3N(CCC3CC3)[C@H]3CC[C@H](NCC4CCCO4)CC3)C2=O)C(=O)N1 (stereo partly drawn)
Response: ≤ 100 nM

Prompt: Give DC50 for the following compound: O=C1CCC(N2Cc3c(cccc3N(CC3CC(F)(F)C3)[C@H]3CC[C@H](NCCC(F)(F)F)CC3)C2=O)C(=O)N1 (stereo partly drawn)
Response: ≤ 100 nM

Prompt: Give DC50 for the following compound: O=C1CCC(N2Cc3c(cccc3N(CCC3CC3)[C@H]3CC[C@@H](N4CCC(C(F)(F)F)C4)CC3)C2=O)C(=O)N1 (stereo partly drawn) [Compound 672A]
Response: 100 to 1000 nM

Prompt: Give DC50 for the following compound: O=C1CCC(N2Cc3c(cccc3N(CCC3CC3)[C@H]3CC[C@@H](N4CCC(F)C4)CC3)C2=O)C(=O)N1 (stereo partly drawn) [Compound 671A]
Response: 100 to 1000 nM

Prompt: Give DC50 for the following compound: O=C1CCC(N2Cc3c(cccc3N(CCC3CC3)[C@H]3CC[C@H](NCc4ccccn4)CC3)C2=O)C(=O)N1 (stereo partly drawn)
Response: ≤ 100 nM

Prompt: Give DC50 for the following compound: O=C1CCC(N2Cc3c(cccc3N(CCC3CC3)[C@H]3CC[C@H](N4CCCC4)CC3)C2=O)C(=O)N1 (stereo partly drawn)
Response: ≤ 100 nM

Prompt: Give DC50 for the following compound: O=C1CCC(N2Cc3c(cccc3N(CC3CC(F)(F)C3)[C@H]3CC[C@@H](NCCC(F)(F)F)CC3)C2=O)C(=O)N1 (stereo partly drawn) [Compound 650A]
Response: > 1000 nM

Prompt: Give DC50 for the following compound: O=C1CCC(N2Cc3c(cccc3N(CCC3CC3)[C@H]3CC[C@H](N4CCC(F)(F)CC4)CC3)C2=O)C(=O)N1 (stereo partly drawn)
Response: ≤ 100 nM

Prompt: Give DC50 for the following compound: O=C1CCC(N2Cc3c(cccc3N(CC3CC4(CCC4)C3)[C@H]3CC[C@H](NCCC(F)(F)F)CC3)C2=O)C(=O)N1 (stereo partly drawn)
Response: ≤ 100 nM

###

- System: MV-4-11 cells
- Experiment notes: AML cell viability assay (RealTime-Glo)
- Assay type: cell-based
- Condition notes: Homo sapiens, MV4-11; IC50 class; MV-4-11 cells, RealTime-Glo after 44 hrs of treatment (TABLE 3); read-out: Cell viability classification
Structures can show the parent of a compound that is named as a salt.
What IC50 was measured for each of the following?

Prompt: Param request: IC50 | system MV-4-11 cells | item CCCCCN(c1cccc2c1CN(C1CCC(=O)NC1=O)C2=O)[C@H]1CC[C@H](C(=O)NC)CC1 (stereo partly shown)
Response: 100 to 1000 nM

Prompt: Param request: IC50 | system MV-4-11 cells | item CCCCCN(c1cccc2c1CN(C1CCC(=O)NC1=O)C2=O)[C@H]1CC[C@H](NC(C)C)CC1 (stereo partly shown) [Compound 310, HCl]
Response: < 100 nM

Prompt: Param request: IC50 | system MV-4-11 cells | item CCCCCN(c1cccc2c1CN(C1CCC(=O)NC1=O)C2=O)[C@H]1CCC[C@@H](CN)C1 (stereo partly shown) [Compound 330, HCl]
Response: < 100 nM

Prompt: Param request: IC50 | system MV-4-11 cells | item NCC(F)(F)CCN(CCC1CC1)c1cccc2c1CN(C1CCC(=O)NC1=O)C2=O (stereo not shown)
Response: 100 to 1000 nM

Prompt: Param request: IC50 | system MV-4-11 cells | item NC[C@H]1CC[C@@H](N(CCC2CC2)c2cccc3c2CN(C2CCC(=O)NC2=O)C3=O)C1 (stereo partly shown) [Compound 326A, HCl]
Response: < 100 nM

Prompt: Param request: IC50 | system MV-4-11 cells | item NC[C@@H]1CC[C@@H](N(CCC2CC2)c2cccc3c2CN(C2CCC(=O)NC2=O)C3=O)C1 (stereo partly shown) [Compound 325A, HCl]
Response: < 100 nM

Prompt: Param request: IC50 | system MV-4-11 cells | item N[C@@H]1CC[C@@H](N(CC2CC2)c2cccc3c2CN(C2CCC(=O)NC2=O)C3=O)C[C@H]1F (stereo partly shown)
Response: < 100 nM
